Please go through the items and note down their SPOT intensity.
Biological target: T1, Hof1, Q05080
T1 sequence (Q05080 590-669, looked up): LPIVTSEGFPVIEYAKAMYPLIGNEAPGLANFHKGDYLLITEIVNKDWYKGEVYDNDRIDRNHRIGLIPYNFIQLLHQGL
Assay: SPOT array
Conditions: median of control spots 4086

GQYRRTIVIPRRFFT	8
YRRKSIPFAPHQITA	5
NRARYLPQNPDIIAG	4
YHSRRHPLALGFKYV	0
GDHPKGPPPPPPPDE	0

Each binder below has a recorded value; state its SPOT intensity.
1. RSRRSSFAYPQQVAI
2. RMVRRRPLRVQFSAR

1: 4; 2: 10
